The reported numbers originate from patent US10028992B2.

Tested on: α7 integrin promoter
Experiment: muscle cell-based assay: α7βgal+/− myoblasts/myotubes, LacZ reporter, β-galactosidase cleavage of FDG
Set-up: species or system mouse
Conditions: curve fit, activity at zero concentration
Measured attribute: Fit Zero Activity [%] (%)
Supply the numeric figure in %, leaving out any unit text.

CCCOc1nc(SCCC)nc2c1cnn2-c1ccccc1 ... −22.6542
O=C(NCCc1ccc(F)cc1)N[C@@H](Cc1ccccc1)C(=O)O ... −20.12

Look at this compound and give its reported Fit Zero Activity [%]. `COc1ccc(CCNC(=O)c2cc(-c3cc(C)ccc3O)n[nH]2)cc1OC`
9.7958

Look at this compound and give its reported Fit Zero Activity [%]. `NS(=O)(=O)c1ccc(NC(=O)c2ccc(CNS(=O)(=O)c3cc(C(F)(F)F)ccc3Cl)cc2)cc1`
0.1699

Look at this compound and give its reported Fit Zero Activity [%]. `Cc1nc2c(cnn2-c2ccccc2)c(=O)n1/N=C/c1ccccc1`
9.9159

Look at this compound and give its reported Fit Zero Activity [%]. `C/C(=N\NC(=O)c1cc(C)oc1C)c1ccc2ccccc2c1`
−1.9678

Look at this compound and give its reported Fit Zero Activity [%]. COc1cc(NC(=O)C2C3C=CC(C3)C2C(=O)O)ccc1NC(=O)c1ccccc1 (stereo not drawn)
−18.7775

Look at this compound and give its reported Fit Zero Activity [%]. `CCc1ccc(Sc2cc(C(=O)NCCN3CCOCC3)c3ccccc3n2)cc1`
13.9034

Look at this compound and give its reported Fit Zero Activity [%]. `CN(C)CCNc1ncnc2sc(-c3ccccc3)cc12`
−0.8551

----------
System: α7 integrin promoter
Test: muscle cell-based assay: α7βgal+/− myoblasts/myotubes, LacZ reporter, β-galactosidase cleavage of FDG
Set-up: species or system mouse
Conditions: Myoblasts, 40 uM
Procedure: An α7 integrin null mouse was produced in which exon 1 of the gene encoding the α7 integrin was replaced by the LacZ reporter. […] A primary myoblast cell line (designated α7βgal^+/−) isolated from 10 day old α7^+/− pups were analyzed for the ability of β-galactosidase to report α7 integrin expression. α7βgal^+/− myoblasts were differentiated and subjected to X-gal staining and western analysis (FIGS. 1A and 1B). […]
Measured attribute: Result in α7+/− β-galactosidase assay
// return a plain number; no unit text

As a guide, the following entries are already answered.
Cn1ccc(C(=O)Nc2cccnc2Cl)n1 [drawing 710] ... −0.1785
CCOC(=O)c1sc(=N)n(-c2ccc(OC)cc2)c1C [drawing 711] ... −0.6044
Cc1cc(C)c(/C=C2\C(=O)Nc3ccccc32)[nH]1 [drawing 720] ... −0.4797
CC(=O)Oc1c(Cl)cc(/C=C2\C(=O)Nc3ccccc32)cc1Cl [drawing 714] ... −0.1892
CCN(CC)CCNC(=O)c1c(C)[nH]c(CC2C(=O)Nc3ccc(F)cc32)c1C (stereo not drawn) [drawing 723] ... −0.9864
Cc1[nH]c(/C=C2\C(=O)Nc3ccc([S+](=O)([O-])Cc4c(Cl)cccc4Cl)cc32)c(C)c1C(=O)C1CCCN1CN1CCCC1 (stereo not drawn) [drawing 725] ... −0.9806
Cc1cc(C)c(/C=C2\C(=O)Nc3ccccc32)[nH]1 [drawing 721] ... −0.2422
CCN(CC)CCNC(=O)c1c(C)[nH]c(CC2C(=O)Nc3ccc(F)cc32)c1C (stereo not drawn) [drawing 715] ... −0.9872

Pending molecule:
Look at this molecule and give its reported Result in α7+/− β-galactosidase assay. O=C1Nc2ccccc2/C1=C1\Nc2ccccc2C1=O [drawing 716]
−0.1933

----------
System: α7 integrin promoter
Assay: muscle cell-based assay: α7βgal+/− myoblasts/myotubes, LacZ reporter, β-galactosidase cleavage of FDG
Set-up: species or system mouse
Conditions: Myotubes; compound at 5 uM
Measured attribute: Results in a α7+/− β-galactosidase assay, Myotubes, 5 uM
// return a plain number; no unit text

CC(C)(C)Nc1nc(-c2ccc3c(c2)CCN3C(=O)C2CC2)cs1 [drawing 345] ... 0.06864

Quick check: Results in a α7+/− β-galactosidase assay, Myotubes, 5 uM on α7 integrin promoter, item COc1ccc(OC)c(S(=O)(=O)Nc2c(NC3CCCCC3)c3ccccc3oc2=O)c1 [drawing 448] ?
0.04486

Quick check: Results in a α7+/− β-galactosidase assay, Myotubes, 5 uM on α7 integrin promoter, item CCN1C(=O)/C(=C(/C#N)c2nc3ccccc3[nH]2)c2ccccc21 [drawing 316] ?
0.001992

Quick check: Results in a α7+/− β-galactosidase assay, Myotubes, 5 uM on α7 integrin promoter, item CN(/C(=N/S(=O)(=O)c1cccs1)c1ccccc1)c1ccccc1 [drawing 381] ?
0.01531

Quick check: Results in a α7+/− β-galactosidase assay, Myotubes, 5 uM on α7 integrin promoter, item CNC(=O)CSc1nnc(-c2ccc3c(c2)OCO3)n1C [drawing 328] ?
0.04868

Quick check: Results in a α7+/− β-galactosidase assay, Myotubes, 5 uM on α7 integrin promoter, item C=CCc1c(C)nc(-c2ccccc2)nc1N/N=C(\C)c1ccc(N)cc1 [drawing 454] ?
−0.2067

Quick check: Results in a α7+/− β-galactosidase assay, Myotubes, 5 uM on α7 integrin promoter, item CC1(C)Cc2c(cnn2-c2cccc(F)c2)C(NC(=O)CCc2cnccn2)C1 (centres unmarked) [drawing 326] ?
−0.03061

Quick check: Results in a α7+/− β-galactosidase assay, Myotubes, 5 uM on α7 integrin promoter, item CC(O)CNc1nc2c(c(=O)n(Cc3ccc(Br)cc3)c(=O)n2C)n1C (centres unmarked) [drawing 372] ?
−0.05597

----------
Tested on: α7 integrin promoter
Assay: muscle cell-based assay: α7βgal+/− myoblasts/myotubes, LacZ reporter, β-galactosidase cleavage of FDG
Set-up: species or system mouse
Settings: curve class number, key not given
Method: An α7 integrin null mouse was produced in which exon 1 of the gene encoding the α7 integrin was replaced by the LacZ reporter. […] A primary myoblast cell line (designated α7βgal^+/−) isolated from 10 day old α7^+/− pups were analyzed for the ability of β-galactosidase to report α7 integrin expression. α7βgal^+/− myoblasts were differentiated and subjected to X-gal staining and western analysis (FIGS. 1A and 1B). […]
Consider the following compounds and their measured Fit Curve Class readings.

Quick check: Fit Curve Class on α7 integrin promoter, item `COc1ccc(CCNC(=O)Cn2nnc(C(=O)Nc3ccc(Br)cc3)c2N)cc1OC` ?
2.1

Quick check: Fit Curve Class on α7 integrin promoter, item CCS(=O)(=O)N1CCN(c2ccc([N+](=O)[O-])c(NCC3CCCO3)c2)CC1 (centres unmarked) ?
2.2

Quick check: Fit Curve Class on α7 integrin promoter, item `O=C(Nc1ccc(S(=O)(=O)Nc2nccs2)cc1)c1ccccc1OC(F)F` ?
2.1

Quick check: Fit Curve Class on α7 integrin promoter, item COC(=O)C1=NNC2(C)C(=O)N(c3ccc(C)cc3)C(=O)C12 (centres unmarked) ?
2.2

Quick check: Fit Curve Class on α7 integrin promoter, item CC(=O)c1ccc(N(C(=O)CNC(=O)c2ccco2)C(C(=O)NC2CCCC2)c2ccc(C)o2)cc1 (centres unmarked) ?
2.1

Quick check: Fit Curve Class on α7 integrin promoter, item `COc1ccccc1C(=O)NCC(=O)/N=N/c1c(O)n(C(C)C)c2ccccc12` ?
2.1

Quick check: Fit Curve Class on α7 integrin promoter, item `O=C(CNC(=O)c1cccc(F)c1)N/N=C/c1cc(Br)ccc1OCc1ccccc1` ?
2.2

Quick check: Fit Curve Class on α7 integrin promoter, item `COc1nccc(NCc2ccccc2)c1C#N` ?
2.1

----------
Tested on: α7 integrin promoter
Assay: muscle cell-based assay: α7βgal+/− myoblasts/myotubes, LacZ reporter, β-galactosidase cleavage of FDG
Parameters: species or system mouse
Conditions: Table 12; curve fit
Measured attribute: Fit HillSlope

Look at this compound and give its reported Fit HillSlope. `CC(C)(C)c1ccc(C(=O)OCC(=O)Nc2sc3c(c2C#N)CCC3)cc1`
1.8617

Look at this compound and give its reported Fit HillSlope. `COc1ccc(CCNC(=O)c2nn(C)c3c2CS(=O)(=O)c2ccccc2-3)cc1OC`
1.8617

Look at this compound and give its reported Fit HillSlope. `COCCSc1ccccc1C(=O)Nc1cc(C)cc(C)c1`
4.9549

----------
Test system: α7 integrin promoter
Test: muscle cell-based assay: α7βgal+/− myoblasts/myotubes, LacZ reporter, β-galactosidase cleavage of FDG
Design: species or system mouse
Details: Myotubes; compound at 1 uM
Cut-off 0.03 on Results in a α7+/− β-galactosidase assay, Myotubes, 1 uM: below means Condition met, at or above means Condition not met.

For Nc1cccc(/C=C/C(=O)O)c1 [drawing 468] , is the recorded Results in a α7+/− β-galactosidase assay, Myotubes, 1 uM below the cut-off of 0.03?
Condition met

For O=C1C2CCCN2C(=O)N1CCCN1CCN(c2cccc(Br)c2)CC1 (centres unmarked) [drawing 453] , is the recorded Results in a α7+/− β-galactosidase assay, Myotubes, 1 uM below the cut-off of 0.03?
Condition met

For O=C(c1ccccc1)N1CCN(S(=O)(=O)c2cccs2)CC1 [drawing 341] , is the recorded Results in a α7+/− β-galactosidase assay, Myotubes, 1 uM below the cut-off of 0.03?
Condition not met

For Cn1cc(CN2CCC(C(=O)Nc3cccc(-c4cscn4)c3)CC2)cn1 [drawing 494] , is the recorded Results in a α7+/− β-galactosidase assay, Myotubes, 1 uM below the cut-off of 0.03?
Condition not met

For O=C1Nc2ccccc2/C1=C/c1ccccc1F [drawing 383] , is the recorded Results in a α7+/− β-galactosidase assay, Myotubes, 1 uM below the cut-off of 0.03?
Condition met
